B1: RHOBTB3 (parent)
chain: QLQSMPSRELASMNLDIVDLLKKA

- Variants of: B1
- measurement-notes: protein stability index of a GFP-peptide fusion (GPS, HEK-293T) (PSI 1-6); higher = more stable;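 further: lentivirally expressed fusions sorted by FACS into six bins by GFP to DsRed ratio, PSI derived from sequencing read proportions per bin multiplied by bin number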
- condition-notes: c terminus: a fixed tail appended
parameter: protein stability index
Respond with the number and no other words.

Use these answered entries as a reference point.
{"columns": ["mutation", "parameter", "measurement"],
 "data": [
  ["P6Q", "protein stability index", 3],
  ["E9R", "protein stability index", 2.15],
  ["L15Y", "protein stability index", 3.87]
]}

Alright, here's another variant for you.
## Input protein stability index lookup needed for L15S , thanks.
## Output 3.79

All values here come from the supplement of paper PMC10567573.
